B1: mRNA-splicing (parent)
chain: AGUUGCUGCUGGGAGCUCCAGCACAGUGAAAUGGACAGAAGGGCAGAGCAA

variants of: B1; assay: exon inclusion enrichment index; higher = more inclusion; WT1 exon 5 minigene, HEK293
Reported exon inclusion enrichment index values for a set of variants
Provide a numeric answer; units are not to be included.

# example entries with known answers
>>> print(df.to_string())
                     macromolecule_sequence                measurement_label  recorded_result
0  AGUUCGCGCCGGGAGCUCCAGCACAGUGAAAUGGAAUGAAGGGCAGAGCAA [G5C C6G U7C U10C C36A A37U]  exon inclusion enrichment index             2.07
1  AGUUUAAGAAGGGAGCUCCAGCACAGUGAAAUGGACAGAAGGGCAGAGCAA [G5U C6A U7A C9A U10A]  exon inclusion enrichment index           0.0813
2  AGUUGACGACGGGAGCUCCAGCACAGUGAAAUGGUUAGAAGGGCAGAGCAA [C6A U7C C9A U10C A35U C36U]  exon inclusion enrichment index            0.135
3  AGUUAGGGAUGGGAGCUCCAGCACAGUAAAAUGGACAGAAGGGCAGAGCAA [G5A C6G U7G C9A G28A]  exon inclusion enrichment index         0.000725
4  AGUUGCUGCUGGGAGCUCCAGUUCAGUGAAAUGGACAGAAGGGCAGAGCAA [C22U A23U]  exon inclusion enrichment index             1.19
5  AGUUAGGGAUGGGAGCUCCAGCACAGUGAAAUGGACAGAUCGGCAGAGCAA [G5A C6G U7G C9A A40U G41C]  exon inclusion enrichment index           0.0209
6  AGUUCGCGCCGGGAGCUCCACAACAGUGAAAUGGACAGAAGGGCAGAGCAA [G5C C6G U7C U10C G21C C22A]  exon inclusion enrichment index             3.02
7  AGCAUCUUUUGGGAGCUCCAGCACAGUGAAAUGGACAGAAGGGCAGAGCAA [U3C U4A G5U G8U C9U]  exon inclusion enrichment index            0.356

# input variant: AGUUCUUCUCGGGAGCUCCAGCACAGUGAAAUGGACAGCGGGGCAGAGCAA [G5C C6U G8C C9U U10C A39C A40G] ; wanted: its exon inclusion enrichment index
2.03

# input variant: AGUUGCUGCUGGGAGCUCCAGCACAGUGAAAUGGACAGAAGGGCGUAGCAA [A45G G46U] ; wanted: its exon inclusion enrichment index
0.121

# input variant: AGUUUUGGAUGGGAGCUCCAGCACAGUGAAAUGGACAGAAGGGCAGAGCAA [G5U C6U U7G C9A] ; wanted: its exon inclusion enrichment index
0.469
